B1: Caulobacter ParB omega fusion; a variant is named by its letters at X, in order, B8GW30 (parent)
chain: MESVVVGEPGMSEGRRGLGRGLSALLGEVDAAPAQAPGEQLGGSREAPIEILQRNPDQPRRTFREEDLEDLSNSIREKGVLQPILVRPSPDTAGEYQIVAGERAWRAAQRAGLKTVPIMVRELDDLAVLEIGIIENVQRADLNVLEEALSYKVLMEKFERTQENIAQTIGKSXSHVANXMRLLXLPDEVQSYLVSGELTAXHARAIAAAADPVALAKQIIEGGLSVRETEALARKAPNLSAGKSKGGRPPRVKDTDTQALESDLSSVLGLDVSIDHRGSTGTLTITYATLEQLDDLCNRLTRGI

- Variants of: B1
- protocol_description: one-hybrid fitness for binding parS DNA (scaled: cognate 1, non-cognate 0); higher = stronger binding
- condition_description: with parS DNA site
In all, about 81,000 sequences were measured (“one-hybrid fitness for binding parS DNA”: median about -0.17, highest 2% from about 0.51 on). Many of the other results were omitted from the sample, so the highest values are more common in it than they were.
outcome_measure: one-hybrid fitness for binding parS DNA

Before answering, review these 5 worked examples.
RWKF; 0.288
RNTT; 0.746
RFMR; ≤ 0.2
RAVC; 0.851
RDNY; ≤ 0.2

Request: Quick one: one-hybrid fitness for binding parS DNA of RWMT ?
Result: 0.556

Request: For RAVN , what is its reported one-hybrid fitness for binding parS DNA?
Result: 0.388

Request: Fill blank: measured one-hybrid fitness for binding parS DNA of the variant RMNR is ____.
Result: ≤ 0.2

Request: Data request, read-out one-hybrid fitness for binding parS DNA, for RWVM
Result: 0.27

Request: I would be grateful if you could share the reported one-hybrid fitness for binding parS DNA for RAKM .
Result: 0.448

Request: Param item = QPMV ; retrieve measured one-hybrid fitness for binding parS DNA.
Result: ≤ 0.2

Request: Quick one: one-hybrid fitness for binding parS DNA of FRAR ?
Result: ≤ 0.2

Request: Name the reported one-hybrid fitness for binding parS DNA value associated with the variant MLIG
Result: ≤ 0.2
